- test.name: activators of Pax4 gene expression, primary screen, RT-PCR, mouse alpha TC1 cells, single point (AID 1053180);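 also: Pax4 Ct normalized to GAPDH with activation seen as lower delta delta Ct; plate controls were plate neutral control wells for no effect and Pax4 plasmid positive control for full effect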
- assay.context: Pax4 mRNA qPCR, 6 days, at 10 µM, active compounds read high, 100% = Pax4 plasmid added at qPCR
Hit rate of the full screen: of about 9,600 compounds, about 20 (0.2%) were called active. Only a selection was taken, and actives are over-represented in it overall.
Documented activation across a set of compounds
Could you give me the number in %? Just the number is fine.

Some entries whose results are on file:
- compound: "O=C(C[C@H]1CC[C@@H]2[C@H](COC[C@H](O)CN2Cc2ccc3c(c2)OCO3)O1)N1CCCCC1"
  unit.descriptor: "%"
  activation: 0.002
- compound: "Cc1cccc(-c2ccc(C3[C@@H]4CN(C(=O)Nc5ccc(F)cc5)C[C@H]3N4)cc2)c1 (stereo not given in full)"
  unit.descriptor: "%"
  activation: 0.272
- compound: "O=C(Nc1ccc(F)cc1)N1C[C@@H]2N[C@H](C1)C2c1ccc(/C=C/c2ccccc2)cc1 (stereo not given in full)"
  unit.descriptor: "%"
  activation: 1.76
- compound: "Cc1ccc(S(=O)(=O)Nc2cccc3c2O[C@@H](CN(C)C(=O)Nc2ccc(C(F)(F)F)cc2)[C@@H](C)CN([C@H](C)CO)C3=O)cc1"
  unit.descriptor: "%"
  activation: 0.002
- compound: "COc1ccccc1S(=O)(=O)N(C)C[C@@H]1OCc2cn(nn2)CCCC(=O)N([C@H](C)CO)C[C@H]1C"
  unit.descriptor: "%"
  activation: 0.001
- compound: "Cc1noc(C)c1S(=O)(=O)N(C)C[C@H]1Oc2c(NS(=O)(=O)c3cn(C)cn3)cccc2C(=O)N([C@@H](C)CO)C[C@@H]1C"
  unit.descriptor: "%"
  activation: -0.005

Need activation, item O=C(NCc1ccccc1)[C@H]1[C@H](CO)[C@H]2Cn3c(cccc3=O)[C@@H]1N2C(=O)Cc1ccccn1
0

Need activation, item C[C@H]1CN([C@@H](C)CO)C(=O)Cc2cc(NS(=O)(=O)c3ccc(Cl)cc3)ccc2O[C@H]1CN(C)C(=O)Nc1ccc(C(F)(F)F)cc1
-0.003

Need activation, item COc1ccc2c3c(n(C)c2c1)[C@@H](CO)NCC31CCN(CC2CCCCC2)CC1
0.027

Need activation, item COc1ccccc1-c1ccc([C@H]2[C@@H](CO)N[C@@H]2CNC(=O)C2CC2)cc1
0.001

Need activation, item COc1ccc(CN2[C@@H]3CN(C(=O)NC(C)C)c4ccccc4[C@@H]3[C@@H]2CO)cc1
-0.0005
